Ref: ChEMBL document CHEMBL5365431

TEST DETAILS: Antiproliferative activity against human Olaparib-resistant CAPAN-1 cells assessed as cell proliferation inhibition incubated for 7 days by SRB assay
Type: functional, cell-based
pIC50: −log10 of the molar value.
Overview of reported pIC50 across a group of compounds:
QUANTITY MEASURED: pIC50

[[record]]
smiles_text = "O=C(c1cc(Cc2n[nH]c(=O)c3ccccc23)ccc1F)N1CCn2c(nnc2-c2ccc(C(F)(F)CO)o2)C1"
measured = 6.86

[[record]]
smiles_text = "Cc1cc(-c2nnc3n2CCN(C(=O)c2cc(Cc4n[nH]c(=O)c5ccccc45)ccc2F)C3)oc1C"
measured = 7.65

[[record]]
smiles_text = "O=C(c1cc(Cc2n[nH]c(=O)c3ccccc23)ccc1F)N1CCn2c(nnc2-c2ccc(C(F)(F)F)o2)C1"
measured = 7.28

[[record]]
smiles_text = "CNCC(F)(F)c1ccc(-c2nnc3n2CCN(C(=O)c2cc(Cc4n[nH]c(=O)c5ccccc45)ccc2F)C3)o1"
measured = 6.37

[[record]]
smiles_text = "O=C(c1cc(Cc2n[nH]c(=O)c3ccccc23)ccc1F)N1CCn2c(nnc2-c2ccc(Cl)o2)C1"
measured = 7.90

[[record]]
smiles_text = "O=C(c1cc(Cc2n[nH]c(=O)c3ccccc23)ccc1F)N1CCn2c(nnc2-c2ccoc2)C1"
measured = 7.13

[[record]]
smiles_text = "CN(C)Cc1ccc(-c2nnc3n2CCN(C(=O)c2cc(Cc4n[nH]c(=O)c5ccccc45)ccc2F)C3)o1"
measured = 5.99

[[record]]
smiles_text = "O=C(c1cc(Cc2n[nH]c(=O)c3ccccc23)ccc1F)N1CCn2c(nnc2-c2ccco2)C1"
measured = 7.25

